The measured values listed here are drawn from patent US20080058263A1.

Target: T1, VEGFR-1-Fc (UniProt P17948 27-338)
T1 construct: domain: first three Ig domains; expressed in Drosophila S2 cells, purified on Protein A sepharose; also called VEGFR-1-Fc fusion protein; not shown: Fc fragment from the Signal-pIgPlus vector
T1 sequence (P17948 27-338): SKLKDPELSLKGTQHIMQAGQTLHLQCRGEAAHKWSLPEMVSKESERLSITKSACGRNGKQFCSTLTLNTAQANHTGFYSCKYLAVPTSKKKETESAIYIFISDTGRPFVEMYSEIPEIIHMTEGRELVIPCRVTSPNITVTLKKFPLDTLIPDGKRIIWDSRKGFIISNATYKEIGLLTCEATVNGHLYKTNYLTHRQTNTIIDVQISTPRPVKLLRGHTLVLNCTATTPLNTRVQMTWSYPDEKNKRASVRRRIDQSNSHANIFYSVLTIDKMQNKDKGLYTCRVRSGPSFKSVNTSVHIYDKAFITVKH
Experiment: receptor-Fc IP
measure: binding result

Item: 74-9 (ligand) GQNHHEVVKSIDNEWRKTQCMPREVCIDVGKEFGVATNTFFKPSCVPLMRCGGCCNDEGLECVPTEESNITMQIMRITVPLSQGPKPVTISFLQHNKCECRPKKD | binding result: no binding

So for 21-4 (ligand) AHYNTEILKSIDNEWRKTQCMPREVCIDVGKEYPDEIEYIFKPSCVPLMRCGGCCNSEGLQCMNTSTSYLSKTLFEIKPHQGQHIGEMSFLQHNKCECRPKKD , the logged binding result turned out to be no binding
